- experimental.protocol: soluble fraction after stress (log2 fold change); higher = more stays soluble; pooled small domains, quantitative proteomics;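 further: 20 min heating vs room temperature control held 20 min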
- setup.conditions: stress: 75 degC
# if value of soluble fraction (log2) reaches -2, tag t; if it stays below, tag f

Solved entries:
HMTIYLSENIKRLRLEKELTQETLSEFLGVTSQSVSNWERGESYPDITMLPEIADFFKVSVDELLGVNRAE	f
HMKNVADEVFEKMLNMIIEGDWKKGEMIPSENELREAFSVSRSTVRQAVQRLSALGIVRSRQGKGTYVEQV	t
HMTEAVYMPALQNKTLEEAQRIVEQYDLELEYTYEANAQVEEGRILSQTPQMGVLVERGEKVQAVVSLG	t
HMNADAIIGRMGKVTEPITPDGYGRVEIDGDSWKATAVGGVAIAEGTRVSVVSLDSIIITVKTV	t
HMEDPPISQEQRQALFKMAHDHLGKDEGNKAILTLIQSHGLNSTTGMKVSTYNTIMEELVSTIQSLAA	t
HMSKPIREVAYETLKNAIVTGEIPAGSRIVETEYAERMHISRTPLREALRKLERDGLVEYVVRRGVVVRAF	t
HMPIHAGERLTLRLAGEGREAGQAIGYLEDGTLVIVERARHLIGQDVTVEVTRTLQTAGGRLVFAHLVE	t
HMDISKTLGKNPLLIIDNIEYRGKTLDEITAMTGVKRFENIDIYGSEEAMKTYGEKAKDGVIIAYTT	t

Query: Hi team, for HMTITPEVIVNHFKNLDLFFTKNGNYYEFKKKGTENILFKYGIYKQKPNIFVKIQRYPISSLSDLERIPI , is the recorded soluble fraction (log2) at or above -2?
Response: t

Query: Please check the record HMAIDWVQIKAEYISGTMSASKLAEKHGVSVYAIRKRSGKERWQELRRQNQSETANKIAEKI and state if its soluble fraction (log2) is at or above -2.
Response: f

Query: Threshold query (soluble fraction (log2) >= -2) on HMNQRQLQIKQMLDVAQEVFLKQLKTVFPDVSEMTIRRDLILLEDMGYAVRTHGGAVSINRF
Response: f
